# Experimental target: MEK
# Test details: Cascade assay for inhibitors of the MAP kinase pathway (In Vitro)
Each record here notes measured IC50.
Just the number in µM, nothing appended.

INSERT INTO results (compound, observed_value) VALUES
  ('Cc1cc(I)ccc1Nc1ccc(Cl)cc1C(=O)NCC(=O)O [Example 40]', 0.651);

The measured IC50 associated with CCCNC(=O)c1ccc(F)cc1Nc1ccc(I)cc1C [Example 41] reads 0.872

The measured IC50 associated with Cc1cc(I)ccc1Nc1ccc(Br)cc1CO [Example 52] reads 2.35

----------
# Experimental target: MEK
# Test details: Cascade assay for inhibitors of the MAP kinase pathway (In Vitro)
# Type: biochemical
Each record here notes measured pIC50.
The value called pIC50 is obtained by taking minus log10 of the concentration in mol/L.

INSERT INTO results (molecule, observed_value) VALUES
  ('Cc1cc(I)ccc1Nc1ccc(Br)cc1C(=O)NCCO [Example 188]', 6.11),
  ('COc1cc(I)ccc1Nc1c(C(=O)O)ccc(F)c1F', 6.36);

For the molecule Cc1cc(I)ccc1Nc1ccc(Br)cc1C(=O)O , the measured pIC50 on MEK was 7.07
